Source: PubChem BioAssay AID1159580

Each entry below lists one item and its recorded normalized growth value.
assay summary: chemical genetic growth profiling, strain panel (AID 1159580);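 note: tested at 20 µM; growth read once vehicle control cultures reached saturation at 30 °C; 1 = growth at the plate median or of vehicle wells; lower values mean less growth of the strain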
details: S. cerevisiae deletion strains, growth OD, locus YFR010W, strain ubp6, active compounds read low
The campaign covered roughly 5,500 compounds. About 2,000 (36%) were called active. Another 18% or so got no clear call; they are omitted. The list shows a part of the results.
measure name: normalized growth

molecule: C[C@]12C=CC(=O)C=C1CCC1C2CC[C@]2(C)C(=O)CCC12 (stereo partly specified)
result number: 0.988
//
molecule: O=C1c2ccc(O)c(O)c2C(=O)c2c(O)ccc(O)c21
result number: 0.539
//
molecule: COc1ccc2[nH]cc(CCNC(C)=O)c2c1
result number: 0.955
//
molecule: COP(=S)(OC)SCn1nnc2ccccc2c1=O
result number: 0.98
//
molecule: C[C@]12C=CC(=O)C=C1CCC1C2C(=O)C[C@@]2(C)C1CC[C@]2(O)C(=O)CO (stereo partly specified)
result number: 0.984
//
molecule: Cc1cc(O)c2c(c1O)C(=O)c1c(O)cc(C)c(O)c1C2=O
result number: 0.942
//
molecule: CC(C)=CCOc1c2occc2cc2ccc(=O)oc12
result number: 0.938
//
molecule: CC(=O)N[C@@H](CC(=O)O)C(=O)O
result number: 1
//
molecule: COc1cc(OC)c2c(c1Cl)OC1(C2=O)C(O)=CC(=O)CC1C (stereo unspecified)
result number: 1.01
//
molecule: CCOc1nc2cccc(C(=O)OC(C)OC(=O)OC3CCCCC3)c2n1Cc1ccc(-c2ccccc2-c2nn[nH]n2)cc1 (stereo unspecified)
result number: 1.04
//
molecule: Cc1ncc([N+](=O)[O-])n1CCO
result number: 0.981
//
molecule: Cc1cc(C)nc(NS(=O)(=O)c2ccc(N)cc2)n1
result number: 0.996
//
molecule: CNC(=O)CSP(=S)(OC)OC
result number: 1.01
//
molecule: O=c1ccc2ccc(O)c(O)c2o1
result number: 1.01
//
molecule: CC1(C)C[C@@H]2C(=O)CC[C@H]3O[C@]3(C)CC[C@H]21
result number: 1.04
//
molecule: CCS(=O)(=O)CCn1c([N+](=O)[O-])cnc1C
result number: 0.967
